# PROTOCOL DESCRIPTION: NCI Yeast Anticancer Drug Screen. Data for the sgs1 mgt1 strain (AID 161);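 further: 0% = growth of cultures given vehicle only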
# STUDY CONDITIONS: S. cerevisiae sgs1 mgt1 strain, at 50.0 µM, hits give high values
Compounds without any hit were thinned out: in the full panel of roughly 79,000, 15% have a hit.
TEST READOUT: growth inhibition (%)
Answer format: numeric, % implied, no suffix.

Known growth inhibition results, listed for orientation:
>>> test_result("CN(C)Cc1nsc(N(C)C)n1")
-34.2
>>> test_result("COC(=O)CC(c1ccccc1)N1CCOCC1 (stereo not given)")
-10.2
>>> test_result("COc1ccccc1NC(=O)CC(=O)N/N=C/c1ccc(N(CCC#N)S(=O)(=O)c2ccccc2)cc1")
-20.6
>>> test_result("O=C(NCCN1CCOCC1)c1ccc(I)cc1")
45
>>> test_result("Cc1cccc(-n2c(N)cc(=O)[nH]c2=S)n1")
-7.8
>>> test_result("CC1=CC(O)C(Br)C(C)(C)C12CCC(C)(Cl)C(Br)C2 (stereo not given)")
89.8
>>> test_result("CC(C)(C)NNC(=O)/C(=C/c1ccc(Oc2ccc(Cl)c(Cl)c2)cc1)NC(=O)c1ccccc1")
2.1
>>> test_result("COC(=O)C1(C(=O)OC)C2CCCCC21 (stereo not given)")
-6.6
>>> test_result("CC(C)=CC(=O)C/C(=N\\NC(N)=S)C(=O)Nc1ccc(Cl)cc1")
5.55
>>> test_result("O=c1n(CCO)nc2n1CCCN2")
7.2

Short answer for CC(=O)Nc1cc(NC(C)=O)c(N=O)c(NC(C)=O)n1 : growth inhibition was -0.7

Lab note: CC(=O)Nc1ccc(S(=O)(=O)Nc2cc(Cl)cc(Cl)c2)cc1 gave growth inhibition of -0.05

Input CCOC1=CC(=O)C(=O)c2ccccc21 . Output growth inhibition: -5.8

So, Cc1ccc(S(=O)c2cccs2)cc1 (stereo not given) ? Its growth inhibition was -49

growth inhibition reported for this compound CC(=O)n1c(N)nc2ccccc21 : 6.95

---

# PROTOCOL DESCRIPTION: NCI Yeast Anticancer Drug Screen. Data for the bub3 strain (AID 167)
# STUDY CONDITIONS: S. cerevisiae bub3 mutant strain, at 50.0 µM, hits give high values
About 79,000 compounds went through this panel and 15% of them were active in at least one assay; those are over-represented in the sample as a whole. Where a SMILES comes first, the peptide text is derived from it. [ ]: non-standard residue; d: D form. The star is where a group is joined. ξ: configuration not given here. Cbz = O=C(OCc1ccccc1)*; ξNva = CCCC(N)C(=O)O
TEST READOUT: growth inhibition (%)
State the answer as a number, implicitly in %.

>>> test_result("COc1ccc(C2OCC(COC(C)=O)O2)cc1OC (stereo unspecified)")
26.5
>>> test_result("CCCCC1(CCBr)C(=O)NC(=Nc2ccccc2)NC1=O (stereo unspecified)")
2.95
>>> test_result("CN(C)CCCNc1ccc2nnn3c4ccc([N+](=O)[O-])cc4c(=O)c1c23")
65.7
>>> test_result("CCN(Cc1ccc(S(=O)(=O)O)cc1)c1cccc(S(=O)(=O)O)c1")
-18.2
>>> test_result("c1ccc(-c2cc(-c3ccncc3)c(-c3ccccc3)nn2)cc1")
-1.1
>>> test_result("CC(=O)Nc1ccc(Cc2cc([N+](=O)[O-])cc([N+](=O)[O-])c2)cc1")
24.9

Reported growth inhibition for O=c1c2ccccc2nnn1O was -5.95

Notebook: CCCC(NC(=O)OCc1ccccc1)C(=O)NCC(=O)O (stereo unspecified) (Cbz-[ξNva]-Gly-OH) , growth inhibition read as 8.7

growth inhibition for COc1cc(CCl)cc(OC)c1OC is -7.65

Briefly, growth inhibition measured for OCCO : -32

Measured growth inhibition, O=C(O)c1ccc([N+](=O)[O-])cc1C(=O)c1cccs1 : 5.6

Reported growth inhibition of CC(=O)c1ccc2ccccc2c1 : -0.1

Lab note: C=CCNC(=O)NCCCCC(NC(C)=O)C(=O)NCc1ccccc1 (stereo unspecified) gave growth inhibition of -16.8

Entry O=S(=O)(O)CO , growth inhibition reported as -7.7
